# assayed system: Transient receptor potential cation channel subfamily M member 8 (Rattus norvegicus, UniProt Q8R455)
# Sequence (Q8R455 whole entry): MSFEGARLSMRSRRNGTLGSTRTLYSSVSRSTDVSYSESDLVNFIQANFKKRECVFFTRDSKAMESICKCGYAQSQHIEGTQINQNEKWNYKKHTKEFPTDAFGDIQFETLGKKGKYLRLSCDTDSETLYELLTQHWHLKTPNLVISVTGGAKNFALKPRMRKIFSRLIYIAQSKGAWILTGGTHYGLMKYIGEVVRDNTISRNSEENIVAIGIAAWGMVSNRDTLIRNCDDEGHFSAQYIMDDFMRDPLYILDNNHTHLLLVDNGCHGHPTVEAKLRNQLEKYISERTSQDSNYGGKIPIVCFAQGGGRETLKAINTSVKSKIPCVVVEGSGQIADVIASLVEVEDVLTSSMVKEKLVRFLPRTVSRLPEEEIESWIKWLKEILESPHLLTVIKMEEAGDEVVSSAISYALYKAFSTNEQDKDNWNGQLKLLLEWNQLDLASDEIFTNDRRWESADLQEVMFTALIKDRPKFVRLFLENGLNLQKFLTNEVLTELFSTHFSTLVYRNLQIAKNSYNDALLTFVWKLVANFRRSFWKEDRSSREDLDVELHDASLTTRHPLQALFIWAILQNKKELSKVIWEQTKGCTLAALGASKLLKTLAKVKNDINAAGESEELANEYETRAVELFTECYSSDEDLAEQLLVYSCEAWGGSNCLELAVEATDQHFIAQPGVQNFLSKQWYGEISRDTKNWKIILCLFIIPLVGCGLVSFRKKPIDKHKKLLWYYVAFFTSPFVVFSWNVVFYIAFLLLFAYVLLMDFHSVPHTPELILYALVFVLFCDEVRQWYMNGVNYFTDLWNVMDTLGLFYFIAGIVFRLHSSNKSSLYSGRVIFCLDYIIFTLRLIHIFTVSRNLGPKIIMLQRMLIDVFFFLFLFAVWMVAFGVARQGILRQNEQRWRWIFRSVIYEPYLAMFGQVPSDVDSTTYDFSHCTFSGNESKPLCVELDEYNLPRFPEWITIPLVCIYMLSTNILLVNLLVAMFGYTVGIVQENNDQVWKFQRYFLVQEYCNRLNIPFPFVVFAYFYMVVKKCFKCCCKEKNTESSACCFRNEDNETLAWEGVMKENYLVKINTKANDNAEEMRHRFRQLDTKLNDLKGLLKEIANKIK
# protocol summary: Antagonist activity against rat TRPM8 expressed in HEK293 cells assessed as inhibition of icilin-induced intracellular Ca2+ level pre-treated 5 mins before icilin stimulation by Fluo-4-AM dye based spectrofluorimetry
# Type: cell-based
measured metric: pIC50
Hey, just a heads up that pIC50 is the negative log base 10 of the concentration in molar.

Task: Provide measured pIC50 value, entry: `O=C1NC2=C(CCc3ccccc32)CN1c1ccccc1O`
Result: 5.24

Task: # return recorded pIC50 for input `O=C1NC(c2cccc([N+](=O)[O-])c2)=CCN1c1cccc(O)c1`
Result: 5.82

Task: Complete the entry with pIC50 for `COc1cccc(N2CC=C(c3cccc([N+](=O)[O-])c3)NC2=O)c1`
Result: 6.62

Task: Give pIC50 for `NC(=O)c1ccccc1N1CC=C(c2ccc([N+](=O)[O-])cc2)NC1=O`
Result: 4.94

Task: Item `CS(=O)(=O)Nc1cccc(-n2cc(-c3cccc([N+](=O)[O-])c3)[nH]c2=O)c1` : provide pIC50
Result: 4.59

Task: Query pIC50 for `O=C1NC(c2cccc([N+](=O)[O-])c2)=CCN1c1ccc(O)cc1`
Result: 4.95

Task: Let me know recorded pIC50 for `COc1cccc(N2CC=C(c3cccc([N+](=O)[O-])c3)N(C)C2=O)c1` , thanks.
Result: 4.16

Task: Provide one value: measured pIC50 of `O=C(/C=C/c1cccc([N+](=O)[O-])c1)Nc1cccc(I)c1`
Result: 7.14

Task: Tell me measured pIC50 for `O=C1NC(c2cccc([N+](=O)[O-])c2)=CCN1c1ccccc1CO` please.
Result: 4.92

Task: Determine from records and report pIC50 for `O=C1NC(c2ccc([N+](=O)[O-])cc2)=CCN1c1cccc(O)c1`
Result: 4.96

Data origin: ChEMBL document CHEMBL3421598
